I'd be grateful if you could share measured protein stability index for these entries.
B1: EDARADD (parent)
chain: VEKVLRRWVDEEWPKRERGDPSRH

Variants of: B1
experiment.description: protein stability index of a GFP-peptide fusion (GPS, HEK-293T) (PSI 1-6); higher = more stable;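 also: lentivirally expressed fusions sorted by FACS into six bins by GFP to DsRed ratio, PSI derived from sequencing read proportions per bin multiplied by bin number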
measurement.conditions: c terminus: a fixed tail appended
Give bare numbers.

Past entries and their recorded results:
# residue.sequence, observed.property, assay.value
records = [
    ("VEKVLRRWVDEEWPARERGDPSRH [K15A]", "protein stability index", 2.72),
    ("VEKVLRRNVDEEWPKRERGDPSRH [W8N]", "protein stability index", 5.25),
    ("VEKVLRRWVDEEWPCRERGDPSRH [K15C]", "protein stability index", 3.18),
    ("VEKVDRRWVDEEWPKRERGDPSRH [L5D]", "protein stability index", 4.57),
    ("VEKVLRRWGDEEWPKRERGDPSRH [V9G]", "protein stability index", 3.83),
]

Return reported protein stability index values for all items listed beneath this line.
1. VEKVLSRWVDEEWPKRERGDPSRH [R6S]
2. VEKVLRRWVDEEWPKRERGPPSRH [D20P]

**Result**
3.6
2.04

Return reported protein stability index values for all items listed beneath this line.
1. VEKVLRRWVDEEWPKRERVDPSRH [G19V]
2. VELVLRRWVDEEWPKRERGDPSRH [K3L]
3. VEKVLRRWVDEEWPKRELGDPSRH [R18L]
4. VEKVLRRFVDEEWPKRERGDPSRH [W8F]
5. VEKVLRRWVDEEWPKRERGDPSYH [R23Y]
6. VEKVLRRWVDEEWPKREMGDPSRH [R18M]

**Result**
[2.11, 2.41, 2.81, 3.34, 2.87, 3.15]

Return reported protein stability index values for all items listed beneath this line.
1. VEKVLRRWVDEEWPKRERGDPTRH [S22T]
2. VEKVLRRLVDEEWPKRERGDPSRH [W8L]
3. VEKVLRRWVDEEWPKRERGYPSRH [D20Y]
4. VEKVLRRWVDEEWPKRERGDQSRH [P21Q]

**Result**
2.93
2.76
2.63
3.07

Return reported protein stability index values for all items listed beneath this line.
1. VEKVLRRWVDEEWPKRARGDPSRH [E17A]
2. VEKVLRRWVDEEWPKREHGDPSRH [R18H]

**Result**
1: 3.43; 2: 3.18
